Reference for the values: patent US9663526B2

Target: recombinant human kinase domain of JAK1 (Homo sapiens (Human))
Sequence (P23458 875-1153): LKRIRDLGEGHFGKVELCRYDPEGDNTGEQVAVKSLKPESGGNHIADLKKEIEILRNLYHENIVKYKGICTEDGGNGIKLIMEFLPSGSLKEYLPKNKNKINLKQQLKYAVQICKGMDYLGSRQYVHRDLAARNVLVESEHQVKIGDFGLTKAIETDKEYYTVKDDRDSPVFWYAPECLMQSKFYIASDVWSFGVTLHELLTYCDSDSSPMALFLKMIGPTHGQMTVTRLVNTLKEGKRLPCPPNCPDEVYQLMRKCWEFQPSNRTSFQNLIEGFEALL
Assay: JAK Caliper enzyme assay at 1 mM ATP (JAK1);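 also: microfluidic mobility-shift readout of synthetic fluorescent peptide phosphorylation, percent product converted from peak height, inhibition relative to DMSO-only wells as uninhibited baseline, room temperature incubation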
Type: biochemical
Conditions: 1 mM ATP; read-out: IC50 (nM) JAK1
Provide the recorded IC50 for the entries that follow.
A complete answer gives the number and then names the unit.

The examples below pair each entry with its known result.
Compound: Cc1cc(Nc2nccc(N3C[C@H]4CC[C@@H](C3)N4C(=O)C3CC3(F)F)n2)cnc1C(N)=O (stereo partly drawn) [Example 34]
Experimental target: recombinant human kinase domain of JAK1 (Homo sapiens (Human))
Result value: 152 nM
//
Compound: CCNC(=O)c1ccc(Nc2ncc(F)c(N3C[C@H]4CC[C@@H](C3)N4C(=O)OC(C)(C)C)n2)cc1C [Example 73]
Experimental target: recombinant human kinase domain of JAK1 (Homo sapiens (Human))
Result value: 260 nM
//
Compound: Cn1cc(Nc2nccc(N3C[C@H]4CC[C@@H](C3)N4C(=O)C3(F)CC3)n2)cn1 [Example 46]
Experimental target: recombinant human kinase domain of JAK1 (Homo sapiens (Human))
Result value: 173 nM
//
Compound: Cn1cc(Nc2nccc(N3C[C@H]4CC[C@@H](C3)N4Cc3ccns3)n2)cn1 [Example 55]
Experimental target: recombinant human kinase domain of JAK1 (Homo sapiens (Human))
Result value: 35 nM

List the reported IC50 of each compound below.
1. CNC(=O)c1ncc(Nc2nccc(N3C[C@H]4CC[C@@H](C3)N4C(=O)[C@@H]3C[C@H]3F)n2)cc1C [Example 45]
2. Cn1cc(Nc2nccc(N3C[C@H]4CC[C@@H](C3)N4C3(CC#N)COC3)n2)cn1 [Example 84]
3. Cn1cc(Nc2nccc(N3C[C@H]4CC[C@@H](C3)N4Cc3cnoc3)n2)cn1 [Example 58]
4. O=C([C@@H]1CC1(F)F)N1[C@@H]2CC[C@H]1CN(c1ccnc(Nc3cnc(N4CC[C@H](O)C4)c(F)c3)n1)C2 [Example 20]
5. CCNC(=O)c1ccc(Nc2ncc(F)c(N3CC4CC(C3)N4C(=O)C(C)(F)F)n2)cc1C [Example 111]
6. Cn1cc(Nc2ncc(F)c(N3C[C@@]4(CO)C[C@@]4(NC(=O)[C@@H]4CC4(F)F)C3)n2)cn1 [Example 109]
7. CC(CC#N)N1[C@@H]2CC[C@H]1CN(c1ccnc(Nc3cnn(C)c3)n1)C2 (stereo partly drawn) [Example 81]
8. O=C(C1CC1)N1[C@@H]2CC[C@H]1CN(c1ccnc(Nc3cnsc3)n1)C2 [Example 52]

["46 nM", "141 nM", "267 nM", "314 nM", "1690 nM", "211 nM", "405 nM", "172 nM"]

* * *

System: interferon alpha signalling (TYK2 and JAK1), STAT3 phosphorylation
Assay: Human whole blood INFα induced STAT3 phosphorylation assay
Assay type: cell-based
Conditions: compound 60 minutes at 37° C., IFNα 5000 U/ml for 15 minutes, pSTAT3 in lymphocyte population by flow cytometry, read-out: HWB IFN alpha IC50
Measured quantity: pIC50
Answers are plain numbers, as −log10 of the molar value.

Molecule: Cc1cc(Nc2nccc(N3C[C@H]4CC[C@@H](C3)N4C(=O)C3CC3)n2)cnc1C(N)=O
pIC50: 6.27

Molecule: CCNC(=O)c1ccc(Nc2ncc(F)c(N3CC4CC(C3)N4C(=O)C(C)(C)F)n2)cc1C
pIC50: 6.11

Molecule: C[C@H](CO)c1ccc(Nc2nccc(N3C[C@H]4CC[C@@H](C3)N4C(=O)[C@@H]3CC3(F)F)n2)cn1 (single isomer, unassigned)
pIC50: 7.06

List the reported pIC50 of each molecule below.
1. CNC(=O)c1ncc(Nc2nccc(N3C[C@H]4CC[C@@H](C3)N4C(=O)[C@@H]3C[C@H]3C#N)n2)cc1F
2. CCNC(=O)c1ccc(Nc2nccc(N3CC4CC(C3)N4C(=O)C(F)(F)F)n2)cc1C
3. O=C([C@@H]1CC1(F)F)N1[C@@H]2CC[C@H]1CN(c1ccnc(Nc3cnc(OCCO)c(Cl)c3)n1)C2
4. O=C([C@@H]1CC1(F)F)N1[C@@H]2CC[C@H]1CN(c1ccnc(Nc3cnc(N4CC[C@@H](O)C4)c(F)c3)n1)C2

[6.86, 6.63, 6.37, 6.14]

* * *

Molecular target: recombinant human kinase domain of JAK2 (Homo sapiens (Human))
Sequence (O60674 849-1124): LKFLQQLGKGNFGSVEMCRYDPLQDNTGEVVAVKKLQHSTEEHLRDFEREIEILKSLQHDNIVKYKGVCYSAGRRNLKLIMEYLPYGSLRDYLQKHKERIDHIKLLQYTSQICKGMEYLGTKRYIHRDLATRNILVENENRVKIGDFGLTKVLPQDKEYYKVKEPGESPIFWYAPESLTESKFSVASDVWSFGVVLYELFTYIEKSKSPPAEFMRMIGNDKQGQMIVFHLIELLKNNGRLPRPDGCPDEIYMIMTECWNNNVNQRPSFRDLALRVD
Assay: JAK Caliper enzyme assay at 1 mM ATP (JAK2);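 also: microfluidic mobility-shift read-out of fluorescent synthetic peptide phosphorylation, percent product converted from peak heights, room temperature, DMSO-only wells as uninhibited baseline, inhibition curve fit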
Assay type: biochemical
Field: label. Allowed values: T (IC50 < 500 nM) or F (IC50 >= 500 nM).

Worked examples follow.
Compound: Cn1cc(Nc2nccc(N3C[C@H]4CC[C@@H](C3)N4c3ncc(C#N)o3)n2)cn1
Cat: T
//
Compound: Cn1cc(Nc2nccc(N3C[C@H]4CC[C@@H](C3)N4C[C@H]3C[C@@H]3C#N)n2)cn1 [Example 69]
Cat: F
//
Compound: CCn1cc(Nc2nccc(N3C[C@H]4CC[C@@H](C3)N4C(=O)[C@@H]3C[C@H]3C#N)n2)cn1
Cat: T
//
Compound: NC(=O)c1ncc(Nc2nccc(N3C[C@H]4CC[C@@H](C3)N4C(=O)[C@@H]3CC3(F)F)n2)cc1F
Cat: T
//
Compound: CCNC(=O)c1ccc(Nc2nccc(N3C[C@H]4CC[C@@H](C3)N4C(=O)CC#N)n2)cc1
Cat: T
//
Compound: CCNC(=O)c1ccc(Nc2nccc(N3CC4CC(C3)N4C(=O)C(F)(F)F)n2)cc1C
Cat: F

Now look at this entry.
Criterion: IC50 strictly below 500 nM. Is it met by CNC(=O)c1ncc(Nc2nccc(N3C[C@H]4CC[C@@H](C3)N4C(=O)[C@H]3C[C@@H]3F)n2)cc1C ?
F

* * *

Target: recombinant human kinase domain of JAK3 (Homo sapiens (Human), UniProt P52333)
Sequence (P52333 822-1111): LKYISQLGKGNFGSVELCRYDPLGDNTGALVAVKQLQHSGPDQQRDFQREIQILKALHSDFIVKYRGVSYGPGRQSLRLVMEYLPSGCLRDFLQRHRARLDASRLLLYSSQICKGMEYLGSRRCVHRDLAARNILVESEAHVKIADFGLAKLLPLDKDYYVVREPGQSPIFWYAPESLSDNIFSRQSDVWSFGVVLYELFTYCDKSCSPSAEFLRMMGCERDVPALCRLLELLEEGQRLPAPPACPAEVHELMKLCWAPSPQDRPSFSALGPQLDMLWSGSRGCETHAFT
Assay: JAK Caliper enzyme assay at 1 mM ATP (JAK3)
Assay type: biochemical
Details: 1 mM ATP; read-out: IC50 (nM) JAK3
Provide the recorded IC50 for the entries that follow.

The examples below pair each entry with its known result.
Compound: CCNC(=O)N1[C@@H]2CC[C@H]1CN(c1ccnc(Nc3cnc(C(=O)NC)c(F)c3)n1)C2
Experimental target: recombinant human kinase domain of JAK3 (Homo sapiens (Human), UniProt P52333)
IC50: > 10000 nM
--
Compound: Cn1cc(Nc2ncc(F)c(N3C[C@@]4(CO)C[C@@]4(NC(=O)[C@@H]4C[C@H]4C#N)C3)n2)cn1
Experimental target: recombinant human kinase domain of JAK3 (Homo sapiens (Human), UniProt P52333)
IC50: 928 nM
--
Compound: CNC(=O)c1ncc(Nc2nccc(N3C[C@H]4CC[C@@H](C3)N4C(=O)NCC#N)n2)cc1C
Experimental target: recombinant human kinase domain of JAK3 (Homo sapiens (Human), UniProt P52333)
IC50: 4170 nM
--
Compound: C[C@H](CO)c1ccc(Nc2nccc(N3C[C@H]4CC[C@@H](C3)N4C(=O)[C@@H]3CC3(F)F)n2)cn1 (single isomer, unassigned)
Experimental target: recombinant human kinase domain of JAK3 (Homo sapiens (Human), UniProt P52333)
IC50: > 10000 nM
--
Compound: CC(C)NC(=O)N1[C@@H]2CC[C@H]1CN(c1ccnc(Nc3cnn(C)c3)n1)C2
Experimental target: recombinant human kinase domain of JAK3 (Homo sapiens (Human), UniProt P52333)
IC50: > 10000 nM
--
Compound: CCNC(=O)c1ncc(Nc2nccc(N3C[C@H]4CC[C@@H](C3)N4C(=O)C3CC3)n2)cc1C
Experimental target: recombinant human kinase domain of JAK3 (Homo sapiens (Human), UniProt P52333)
IC50: > 10000 nM

Now, please, on to the next compound.
Tell me IC50 of CNC(=O)c1ncc(Nc2nccc(N3C[C@H]4CC[C@@H](C3)N4C(=O)C3CC3)n2)cc1Cl when tested on recombinant human kinase domain of JAK3 (Homo sapiens (Human), UniProt P52333).
> 10000 nM

* * *

System: interferon alpha signalling (TYK2 and JAK1), STAT3 phosphorylation
Assay: Human whole blood INFα induced STAT3 phosphorylation assay;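 also: flow cytometry with anti-pSTAT3 staining, signal as percent-positive × mean fluorescence, baseline from unstimulated wells, 11-point dilution series, IC50 as inhibition of pSTAT3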
Assay type: cell-based
Settings: compound 60 minutes at 37° C., IFNα 5000 U/ml for 15 minutes, pSTAT3 in lymphocyte population by flow cytometry, read-out: HWB IFN alpha IC50
Measured quantity: IC50 (nM)
Numbers only, in nM.

Compound: Cn1cc(Nc2nccc(N3C[C@H]4CC[C@@H](C3)N4Cc3ccns3)n2)cn1 [Example 55]
Measured quantity: IC50
Result value: 168
--
Compound: O=C([C@@H]1CC1(F)F)N1[C@@H]2CC[C@H]1CN(c1ccnc(Nc3cnc(CCO)c(Cl)c3)n1)C2 [Example 18]
Measured quantity: IC50
Result value: 338
--
Compound: CNC(=O)c1ncc(Nc2nccc(N3C[C@H]4CC[C@@H](C3)N4C(=O)[C@@H]3CC3(F)F)n2)cc1Cl [Example 10]
Measured quantity: IC50
Result value: 439
--
Compound: O=C([C@@H]1CC1(F)F)N1[C@@H]2CC[C@H]1CN(c1ccnc(Nc3cn[nH]c3)n1)C2 [Example 51]
Measured quantity: IC50
Result value: 20
--
Compound: Cn1cc(Nc2nccc(N3C[C@H]4CC[C@@H](C3)N4C(=O)[C@@H]3CC3(F)F)n2)cn1 [Example 7]
Measured quantity: IC50
Result value: 30
--
Compound: Cc1cnc(Nc2ccc(OCCO)nc2)nc1N1C[C@H]2[C@@H](C)[C@@]2(NC(=O)[C@H]2C[C@@H]2C#N)C1 [Example 98]
Measured quantity: IC50
Result value: 246

Now, please, on to the next compound.
Recall and state the measured IC50 for Cn1cc(Nc2nccc(N3C[C@H]4CC[C@@H](C3)N4C(=O)C3(F)CC3)n2)cn1 [Example 46] .
209
